# Tested on: SF-268 CNS
# test protocol: NCI-60 one-dose screen, 48 h
# assay setup: 10 µM unless noted
The panel holds about 83,000 compounds, 20% with a hit somewhere; the sample as a whole holds those more often. Activity calls are given as the source filed them. How the source made its calls: active means growth percent below 10; inactive means the rest.
Lab note: assign the record to one of active, inactive

Check out these entries, answers already filled in.
[
  {
    "compound": "O=C1/C(=C2\\SC(=S)N(C3CC3)C2=O)SC(=S)N1C1CC1",
    "class label": "inactive"
  },
  {
    "compound": "C=CCOC(=O)C1=C(C)N(CC)C(=O)NC1c1c(Cl)n(C)c2ccccc12 (stereo not drawn)",
    "class label": "inactive"
  },
  {
    "compound": "C[C@H](C(=O)N(CCc1ccc(Cl)c(Cl)c1)Cc1cncs1)[C@@H]1CC[C@H](C[C@H](C)n2cc(CN3CCC(c4ccc(Cl)cc4)CC3)nn2)O1",
    "class label": "inactive"
  },
  {
    "compound": "Cc1ccc(/C=C/C(=O)Nc2ncc(Cc3ccc(F)cc3)s2)o1",
    "class label": "inactive"
  },
  {
    "compound": "COc1ccc(C(=O)/C=C/c2ccc(N3CCCCC3)cc2)cc1OC",
    "class label": "inactive"
  }
]

[in] Any idea what this test logged for `C=CN(C(=O)N1CCN(c2cc3c(cc2F)c(=O)c(C(=O)O)cn3C2CC2)CC1)c1nc(-c2ccc(OC)cc2)cs1` ?
[out] inactive

[in] Record lookup: outcome of this test for `Cc1nc2ccccc2c(/C=C/c2ccccc2)c1C(=O)/C=C/c1ccccc1` ?
[out] inactive

[in] // return assay outcome for `Clc1ccccc1-c1cnn2cc(-c3ccccc3)cnc12`
[out] inactive

[in] Just curious, what result did `O=C(O)c1cn(C2CC2)c2cc(N3CCN(C(=O)Nc4nc(-c5ccc(Br)cc5)cs4)CC3)c(F)cc2c1=O` get here?
[out] inactive

[in] For `O=C(Cc1cccc(OC(F)(F)F)c1)Nc1ccc(CCCCc2nnc(NC(=O)Cc3ccccn3)s2)nn1` , which call appears in the assay record?
[out] inactive
